# MIC per entry
- System: Staphylococcus aureus
- assay notes: Antibacterial activity against Staphylococcus aureus ATCC 25923 after 24 hrs by agar dilution method
- Format: functional
- stated conditions: ATCC 25923, 24 h
observation type: MIC (µg/mL)

| compound | endpoint result |
| --- | --- |
| C=CC(=O)OC1C(=O)N(SC)C1c1ccccc1Cl (centres undefined) | 128 |
| C=CC(=O)Oc1ccc(C2C(OC)C(=O)N2SC)cc1 (centres undefined) | 128 |
| C=CC(=O)Oc1ccc(C2C(OC(=O)C=C)C(=O)N2SC)cc1 (centres undefined) | 128 |
| C=CC(=O)OCCOC(=O)CCC(=O)OC1C(=O)N(SC)C1c1ccccc1Cl (centres undefined) | 64 |

###

- Test system: Serum
- assay notes: Stability in human blood serum after 24 hrs
- Format: ADME, cell-free

| molecule | Activity |
| --- | --- |
| C=CC(=O)OCCOC(=O)CCC(=O)OC1C(=O)N(SC)C1c1ccccc1Cl (centres undefined) | Stable |
| C=CC(=O)Oc1ccc(C2C(OC)C(=O)N2SC)cc1 (centres undefined) | Stable |
| C=CC(=O)OC1C(=O)N(SC)C1c1ccccc1Cl (centres undefined) | Stable |
| C=CC(=O)Oc1ccc(C2C(OC(=O)C=C)C(=O)N2SC)cc1 (centres undefined) | Stable |
